Provide the reported viability, T/C of each item.
Test system: NCI-H929 complex spheroids, viability % test/control
Experiment: Anticancer human tumor NCI-H929 cell line growth inhibition [RAS];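 further: compound exposure lasted seven days before viability was read; 100% = DMSO vehicle control viability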
Details: second compound 0.00949 µM; first compound 0.0316 µM; hits give low values
Numbers only; they are read as %.

Q) Please give the measured viability, T/C for this compound: CC(C)NCC(C(=O)N1CCN(c2ncnc3c2C(C)CC3O)CC1)c1ccc(Cl)cc1 (stereo unspecified) + CCn1c(-c2cccnc2C(C)OC)c2c3cc(ccc31)N1CCOC(CC(NC(=O)C(C(C)C)N(C)C(=O)C3(F)CCN(C(=O)C#CC(C)(C)N(C)C)CC3)C(=O)N3CCCC(N3)C(=O)OCC(C)(C)C2)C1
A) 98.6

Q) Please give the measured viability, T/C for this compound: CC(=O)OC12COC1CC(O)C1(C)C(=O)C(O)C3=C(C)C(OC(=O)C(O)C(NC(=O)OC(C)(C)C)c4ccccc4)CC(O)(C(OC(=O)c4ccccc4)C21)C3(C)C (stereo unspecified) + CCn1c(-c2cc(N3CCN(C)CC3)cnc2C(C)OC)c2c3cc(ccc31)-c1csc(n1)CC(NC(=O)C1CC1C)C(=O)N1CCCC(N1)C(=O)OCC(C)(C)C2
A) 1.36

Q) Please give the measured viability, T/C for this compound: C=CC(=O)Nc1cc(Nc2nccc(-c3cn(C)c4ccccc34)n2)c(OC)cc1N(C)CCN(C)C + CCn1c(-c2cccnc2C(C)OC)c2c3cc(ccc31)N1CCOC(CC(NC(=O)C(C(C)C)N(C)C(=O)C3(F)CCN(C(=O)C#CC(C)(C)N(C)C)CC3)C(=O)N3CCCC(N3)C(=O)OCC(C)(C)C2)C1
A) 107

Q) Please give the measured viability, T/C for this compound: Cc1nc(N2CCC3(CC2)COC(C)C3N)c(CO)nc1Sc1ccnc(N)c1Cl (stereo unspecified) + CCn1c(-c2cccnc2C(C)OC)c2c3cc(ccc31)N1CCOC(CC(NC(=O)C(C(C)C)N(C)C(=O)C3(F)CCN(C(=O)C#CC(C)(C)N(C)C)CC3)C(=O)N3CCCC(N3)C(=O)OCC(C)(C)C2)C1
A) 102

Q) Please give the measured viability, T/C for this compound: CC1(O)CCCC1n1c(=O)c(C(F)F)cc2cnc(NC3CCN(S(C)(=O)=O)CC3)nc21 (stereo unspecified) + CCn1c(-c2cc(N3CCN(C)CC3)cnc2C(C)OC)c2c3cc(ccc31)-c1csc(n1)CC(NC(=O)C1CC1C)C(=O)N1CCCC(N1)C(=O)OCC(C)(C)C2
A) 113

Q) Please give the measured viability, T/C for this compound: CC(C)NCC(C(=O)N1CCN(c2ncnc3c2C(C)CC3O)CC1)c1ccc(Cl)cc1 (stereo unspecified) + CCn1c(-c2cc(N3CCN(C)CC3)cnc2C(C)OC)c2c3cc(ccc31)-c1csc(n1)CC(NC(=O)C1CC1C)C(=O)N1CCCC(N1)C(=O)OCC(C)(C)C2
A) 109

Q) Please give the measured viability, T/C for this compound: C=CC(=O)Nc1cc(Nc2nccc(-c3cn(C)c4ccccc34)n2)c(OC)cc1N(C)CCN(C)C + CCn1c(-c2cc(N3CCN(C)CC3)cnc2C(C)OC)c2c3cc(ccc31)-c1csc(n1)CC(NC(=O)C1CC1C)C(=O)N1CCCC(N1)C(=O)OCC(C)(C)C2
A) 112

Q) Please give the measured viability, T/C for this compound: C[C@@H](NC(=O)c1ncnc(N)c1Cl)c1ncc(C(=O)Nc2cc(C(F)(F)F)c(Cl)cn2)s1 + CCn1c(-c2cc(N3CCN(C)CC3)cnc2C(C)OC)c2c3cc(ccc31)-c1csc(n1)CC(NC(=O)C1CC1C)C(=O)N1CCCC(N1)C(=O)OCC(C)(C)C2
A) 91.8

Q) Please give the measured viability, T/C for this compound: CCC(CC)c1cc(NC2CCC(N)C2)n2nccc2n1 (stereo unspecified) + CCn1c(-c2cccnc2C(C)OC)c2c3cc(ccc31)N1CCOC(CC(NC(=O)C(C(C)C)N(C)C(=O)C3(F)CCN(C(=O)C#CC(C)(C)N(C)C)CC3)C(=O)N3CCCC(N3)C(=O)OCC(C)(C)C2)C1
A) 102

Q) Please give the measured viability, T/C for this compound: O=C(c1ccc(F)c(F)c1Nc1ccc(I)cc1F)N1CC(O)([C@@H]2CCCCN2)C1 + CCn1c(-c2cccnc2C(C)OC)c2c3cc(ccc31)N1CCOC(CC(NC(=O)C(C(C)C)N(C)C(=O)C3(F)CCN(C(=O)C#CC(C)(C)N(C)C)CC3)C(=O)N3CCCC(N3)C(=O)OCC(C)(C)C2)C1
A) 104

Q) Please give the measured viability, T/C for this compound: CCN1CCN(Cc2ccc(Nc3ncc(F)c(-c4cc(F)c5nc(C)n(C(C)C)c5c4)n3)nc2)CC1 + CCn1c(-c2cc(N3CCN(C)CC3)cnc2C(C)OC)c2c3cc(ccc31)-c1csc(n1)CC(NC(=O)C1CC1C)C(=O)N1CCCC(N1)C(=O)OCC(C)(C)C2
A) 120

Q) Please give the measured viability, T/C for this compound: CC(Nc1ccc2c(c1)OCCn1cc(N3C(=O)OCC3C(F)F)nc1-2)C(N)=O (stereo unspecified) + CCn1c(-c2cccnc2C(C)OC)c2c3cc(ccc31)N1CCOC(CC(NC(=O)C(C(C)C)N(C)C(=O)C3(F)CCN(C(=O)C#CC(C)(C)N(C)C)CC3)C(=O)N3CCCC(N3)C(=O)OCC(C)(C)C2)C1
A) 98.7

Q) Please give the measured viability, T/C for this compound: CC(=O)OC12COC1CC(O)C1(C)C(=O)C(O)C3=C(C)C(OC(=O)C(O)C(NC(=O)OC(C)(C)C)c4ccccc4)CC(O)(C(OC(=O)c4ccccc4)C21)C3(C)C (stereo unspecified) + CCn1c(-c2cccnc2C(C)OC)c2c3cc(ccc31)N1CCOC(CC(NC(=O)C(C(C)C)N(C)C(=O)C3(F)CCN(C(=O)C#CC(C)(C)N(C)C)CC3)C(=O)N3CCCC(N3)C(=O)OCC(C)(C)C2)C1
A) 0.76

Q) Please give the measured viability, T/C for this compound: C[C@@H](NC(=O)c1ncnc(N)c1Cl)c1ncc(C(=O)Nc2cc(C(F)(F)F)c(Cl)cn2)s1 + CCn1c(-c2cccnc2C(C)OC)c2c3cc(ccc31)N1CCOC(CC(NC(=O)C(C(C)C)N(C)C(=O)C3(F)CCN(C(=O)C#CC(C)(C)N(C)C)CC3)C(=O)N3CCCC(N3)C(=O)OCC(C)(C)C2)C1
A) 99.7

Q) Please give the measured viability, T/C for this compound: NC1c2ccccc2OC12CCN(c1cnc3c(N4CCCc5ncccc54)n[nH]c3n1)CC2 (stereo unspecified) + CCn1c(-c2cc(N3CCN(C)CC3)cnc2C(C)OC)c2c3cc(ccc31)-c1csc(n1)CC(NC(=O)C1CC1C)C(=O)N1CCCC(N1)C(=O)OCC(C)(C)C2
A) 121

Q) Please give the measured viability, T/C for this compound: C=CC(=O)N1CCN(c2nc(OCC3CCCN3C)nc3c(F)c(-c4nc(N)cc(C)c4C(F)(F)F)c(Cl)cc23)C(C)C1 (stereo unspecified) + CCn1c(-c2cc(N3CCN(C)CC3)cnc2C(C)OC)c2c3cc(ccc31)-c1csc(n1)CC(NC(=O)C1CC1C)C(=O)N1CCCC(N1)C(=O)OCC(C)(C)C2
A) 116
